pKi: −log10 of the molar value.
pKi values for Coagulation factor X (Homo sapiens) compiled from several publications are listed below.
endpoint: pKi

Use these answered entries as a reference point.
# molecule, measured_target, endpoint, measured_number
records = [
    ("CC(C)N1CCC(NS(=O)(=O)CC(C)(C)NC(=O)c2ccc(Cl)s2)CC1", "Coagulation factor X (Homo sapiens)", "pKi", 5.47),
    ("Cc1ncc(CNc2ccc(-c3ccc(C(=N)N)cc3)cc2)c(C)c1OCc1cccc(C(=N)N)c1", "Coagulation factor X (Homo sapiens)", "pKi", 6.85),
]

a = NC(N)=Nc1ccc(C(=O)N(Cc2cccc(C(=O)NCC(=O)O)c2)C2CCN(S(=O)(=O)/C=C/c3ccc(Cl)cc3)C2)cc1 (stereo not drawn)
b = CCCCn1ccnc1-c1nc2cc(C(=N)N)ccc2[nH]1
When the recorded pKi values are compared, which is smaller: that of a or that of b ? Give the chosen item's label as your response.
a
